System: A498
Assay: Antitumor activity against human A498 cells assessed as growth inhibition at 10 uM relative to control
Assay type: functional
Conditions: read-out: GI
observable: inhibition of growth at 10 µM (%)
Provide only the numeric value, understood in %.

smiles_repr: Cc1cc(C)n(-c2nc(-c3ccc(Cl)cc3)c(C#N)c(N3CCOCC3)n2)n1
experimental_result: 46.3

Ask | Any idea what inhibition of growth at 10 µM came out for "N#Cc1c(-c2ccc(Cl)cc2)nc(N/N=C/c2ccc[nH]2)nc1N1CCOCC1" on A498?
Reply | 68.3

Ask | Tell me reported inhibition of growth at 10 µM for "N#Cc1c(-c2ccc(Cl)cc2)nc(N2NC(=O)CC2=N)nc1N1CCOCC1" , tested with A498.
Reply | 34.3

Ask | # value lookup — system A498, readout inhibition of growth at 10 µM, item "COc1cc(/C=N/Nc2nc(-c3ccc(Cl)cc3)c(C#N)c(N3CCOCC3)n2)cc(OC)c1OC"
Reply | 33.7

* * *

Test system: NCI-H226
Assay: Antitumor activity against human NCI-H226 cells assessed as growth inhibition at 10 uM relative to control
Format: functional
Settings: read-out: GI
observable: inhibition of growth at 10 µM (%)
Form entry: value (%) — number only.

Previously resolved entries follow.
smiles_repr: N#Cc1c(-c2ccc(Cl)cc2)nc(N/N=C/c2cccc([N+](=O)[O-])c2)nc1N1CCOCC1
experimental_result: 28.7
//
smiles_repr: N#Cc1c(-c2ccc(Cl)cc2)nc(NN)nc1N1CCOCC1
experimental_result: 14.1
//
smiles_repr: N#Cc1c(-c2ccc(Cl)cc2)nc(N/N=C/c2ccc[nH]2)nc1N1CCOCC1
experimental_result: 31.1
//
smiles_repr: Cc1cc(C)n(-c2nc(-c3ccc(Cl)cc3)c(C#N)c(N3CCOCC3)n2)n1
experimental_result: 14

Ask | Suppose we examine the compound "CSc1nc(-c2ccc(Cl)cc2)c(C#N)c(N2CCOCC2)n1" ; what inhibition of growth at 10 µM value has been reported?
Reply | 17.5

Ask | Which inhibition of growth at 10 µM is reported for this compound? "N#Cc1c(-c2ccc(Cl)cc2)nc(N/N=C/c2cccc(Cl)c2)nc1N1CCOCC1"
Reply | 10.7

Ask | Request the reported inhibition of growth at 10 µM associated with "CC1=NN(c2nc(-c3ccc(Cl)cc3)c(C#N)c(N3CCOCC3)n2)C(=O)C1"
Reply | 10.2

Ask | Return reported inhibition of growth at 10 µM; argument: "N#Cc1c(-c2ccc(Cl)cc2)nc(N/N=C/c2cccc(O)c2)nc1N1CCOCC1"
Reply | 36.7

* * *

Tested on: SF-539
Assay: Antitumor activity against human SF-539 cells assessed as growth inhibition at 10 uM relative to control
Type: functional
Conditions: read-out: GI
observable: inhibition of growth at 10 µM (%)
The answer is to be given in %; state only the numeric part.

Examples with answers:
smiles_repr: N#Cc1c(-c2ccc(Cl)cc2)nc(N/N=C/c2cccc([N+](=O)[O-])c2)nc1N1CCOCC1
unit_text: %
inhibition of growth at 10 µM: 17.7
//
smiles_repr: COc1cc(/C=N/Nc2nc(-c3ccc(Cl)cc3)c(C#N)c(N3CCOCC3)n2)cc(OC)c1OC
unit_text: %
inhibition of growth at 10 µM: 35.5
//
smiles_repr: N#Cc1c(-c2ccc(Cl)cc2)nc(NN)nc1N1CCOCC1
unit_text: %
inhibition of growth at 10 µM: 12.3
//
smiles_repr: N#Cc1c(-c2ccc(Cl)cc2)nc(N/N=C/c2cccc(Cl)c2)nc1N1CCOCC1
unit_text: %
inhibition of growth at 10 µM: 20.9

Attention now turns to another entry.
Ask | Would you mind telling me what inhibition of growth at 10 µM value was observed for "N#Cc1c(-c2ccc(Cl)cc2)nc(N/N=C/c2ccc[nH]2)nc1N1CCOCC1" ?
Reply | 66.6

Every entry's value here was drawn from ChEMBL document CHEMBL5376013.
